Biological target: Sterol O-acyltransferase 1 (Chlorocebus aethiops)
Sequence (O77760 whole entry): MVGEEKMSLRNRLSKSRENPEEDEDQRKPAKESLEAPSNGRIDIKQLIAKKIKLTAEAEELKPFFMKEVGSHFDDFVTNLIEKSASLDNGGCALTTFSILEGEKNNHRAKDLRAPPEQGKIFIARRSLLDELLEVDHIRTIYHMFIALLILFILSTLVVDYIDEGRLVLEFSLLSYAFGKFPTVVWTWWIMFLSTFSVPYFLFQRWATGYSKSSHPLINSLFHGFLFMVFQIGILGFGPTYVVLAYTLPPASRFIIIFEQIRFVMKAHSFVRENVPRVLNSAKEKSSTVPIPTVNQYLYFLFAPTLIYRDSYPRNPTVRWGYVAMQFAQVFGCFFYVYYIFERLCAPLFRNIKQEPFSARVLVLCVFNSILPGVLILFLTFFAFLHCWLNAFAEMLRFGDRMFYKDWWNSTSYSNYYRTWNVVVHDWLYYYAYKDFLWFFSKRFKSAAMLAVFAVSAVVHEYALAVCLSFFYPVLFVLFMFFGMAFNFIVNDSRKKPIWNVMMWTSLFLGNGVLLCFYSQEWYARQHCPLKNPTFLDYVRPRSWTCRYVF
Test: Inhibition of African green monkey SOAT1 expressed in CHO cell microsomal fractions assessed as reduction in neutral lipid synthesis incubated for 5 mins using [1-14C]oleoyl-CoA by thin-layer chromatography
Non-standard residues stand in square brackets, D forms with d. Residues, ends and D or L forms follow the SMILES beside them. *: point of attachment. NMeF = CN[C@@H](Cc1ccccc1)C(=O)O; NMeV = CN[C@H](C(=O)O)C(C)C; Butyryl = CCCC(=O)*; X1 = CN(Cc1nccs1)*
Answer each item with its documented pIC50.
Numbers only, as −log10 of the molar value.

>>> value_measured("COc1c([C@H](CC(C)C)OC(C)=O)ccc2c1C(=O)OCc1cc(C)cc(O)c1O2")
6.05
>>> value_measured("CCCC(=O)N[C@H](C(=O)N1CCC[C@H]1C(=O)N(C)[C@@H](Cc1ccccc1)C(=O)N[C@@H](CC(C)C)C(=O)N(C)[C@H](C(=O)N(C)Cc1nccs1)C(C)C)C(C)C (Butyryl-VP[NMeF]L[NMeV]-X1)")
4.96
>>> value_measured("CCCC(=O)N(C)[C@H](C(=O)N1CCC[C@H]1C(=O)N(C)[C@@H](Cc1ccccc1)C(=O)N[C@@H](CC(C)C)C(=O)N[C@H](C(=O)N(C)Cc1nccs1)C(C)C)C(C)C (Butyryl-[NMeV]P[NMeF]LV-X1)")
5.17

Lab note: CCCC(=O)N(C)[C@H](C(=O)N1CCC[C@H]1C(=O)N(C)[C@@H](Cc1ccccc1)C(=O)N[C@@H](CC(C)C)C(=O)N(C)[C@H](C(=O)N(C)Cc1nccs1)C(C)C)C(C)C (Butyryl-[NMeV]P[NMeF]L[NMeV]-X1) gave pIC50 of 5.74

Hello, the source for this data is ChEMBL document CHEMBL4177543, in case you need it.
